Test: Stability to adenosine deaminase (residual percentage by HPLC)
Assay type: in vitro ADME, young calf
Settings: bovine; 120 min; pH 6.8, 37° C., 5 units adenosine deaminase
Protocol: Sample (0.05 ml) was dissolved into 20 ml of 0.1M phosphate buffer (pH 6.8), and 5 units of adenosine deaminase originated from young calf intestinal mucous membrane (SIGMA Product No. A-1155) was added. While keeping the resulting mixture at a constant temperature of 37° C., its 1 ml portion was sampled out at predetermined intervals. […]
ATTRIBUTE MEASURED: remaining at 2 h (%)
Number in %, nothing else.

Task: Item `Nc1nc(F)nc2c1ncn2[C@@H]1O[C@H](CO)[C@H]1CO` has what recorded remaining at 2 h?
Output: 100

Task: And for Nc1nc(Cl)nc2c1ncn2[C@@H]1O[C@H](COP(=O)(O)O)[C@H]1CO [Compound No. 6, 2-Chloro-oxetanocin A 4'-phosphate] ?
Output: 100

Task: And for `Nc1ncnc2c1ncn2[C@@H]1O[C@H](CO)[C@H]1CO` ?
Output: 0

Task: And for `Nc1nc(Cl)nc2c1ncn2[C@@H]1O[C@H](CO)[C@H]1CO` ?
Output: 100

Task: And for Nc1nc(F)nc2c1ncn2[C@@H]1O[C@H](COP(=O)(O)O)[C@H]1CO [Compound No. 5, 2-Fluoro-oxetanocin A 4'-phosphate] ?
Output: 100

* * *

Task for the reader: assign each of the following compounds its reported remaining at 1 h.
assay: Stability to adenosine deaminase (residual percentage by HPLC); type: in vitro ADME, young calf; conditions: bovine; 60 min; pH 6.8, 37° C., 5 units adenosine deaminase

Task: Item `Nc1nc(Cl)nc2c1ncn2[C@@H]1O[C@H](CO)[C@H]1CO` has what recorded remaining at 1 h?
Output: 100%

Task: And for Nc1nc(F)nc2c1ncn2[C@@H]1O[C@H](COP(=O)(O)O)[C@H]1CO [Compound No. 5, 2-Fluoro-oxetanocin A 4'-phosphate] ?
Output: 100%

Task: And for Nc1nc(Cl)nc2c1ncn2[C@@H]1O[C@H](COP(=O)(O)O)[C@H]1CO [Compound No. 6, 2-Chloro-oxetanocin A 4'-phosphate] ?
Output: 100%

Task: And for `Nc1nc(F)nc2c1ncn2[C@@H]1O[C@H](CO)[C@H]1CO` ?
Output: 100%

Task: And for `Nc1ncnc2c1ncn2[C@@H]1O[C@H](CO)[C@H]1CO` ?
Output: 0%

* * *

experiment: Stability to adenosine deaminase (residual percentage by HPLC); format: in vitro ADME, young calf; conditions: bovine; 10 min; pH 6.8, 37° C., 5 units adenosine deaminase
Task for the reader: assign each of the following compounds its reported remaining at 10 min.
Number in %, nothing else.

Task: Item Nc1nc(F)nc2c1ncn2[C@@H]1O[C@H](CO)[C@H]1CO [Compound No. 1, 2-Fluoro-oxetanocin A] has what recorded remaining at 10 min?
Output: 100

Task: And for Nc1ncnc2c1ncn2[C@@H]1O[C@H](CO)[C@H]1CO [Oxetanocin A] ?
Output: 85

Task: And for Nc1nc(Cl)nc2c1ncn2[C@@H]1O[C@H](COP(=O)(O)O)[C@H]1CO [Compound No. 6, 2-Chloro-oxetanocin A 4'-phosphate] ?
Output: 100

Task: And for Nc1nc(Cl)nc2c1ncn2[C@@H]1O[C@H](CO)[C@H]1CO [Compound No. 2, 2-Chloro-oxetanocin A] ?
Output: 100

Task: And for Nc1nc(F)nc2c1ncn2[C@@H]1O[C@H](COP(=O)(O)O)[C@H]1CO [Compound No. 5, 2-Fluoro-oxetanocin A 4'-phosphate] ?
Output: 100
